targetUnderTest: human α2A‐adrenoceptor (Homo sapiens, UniProt P08913)
Sequence (P08913 whole entry): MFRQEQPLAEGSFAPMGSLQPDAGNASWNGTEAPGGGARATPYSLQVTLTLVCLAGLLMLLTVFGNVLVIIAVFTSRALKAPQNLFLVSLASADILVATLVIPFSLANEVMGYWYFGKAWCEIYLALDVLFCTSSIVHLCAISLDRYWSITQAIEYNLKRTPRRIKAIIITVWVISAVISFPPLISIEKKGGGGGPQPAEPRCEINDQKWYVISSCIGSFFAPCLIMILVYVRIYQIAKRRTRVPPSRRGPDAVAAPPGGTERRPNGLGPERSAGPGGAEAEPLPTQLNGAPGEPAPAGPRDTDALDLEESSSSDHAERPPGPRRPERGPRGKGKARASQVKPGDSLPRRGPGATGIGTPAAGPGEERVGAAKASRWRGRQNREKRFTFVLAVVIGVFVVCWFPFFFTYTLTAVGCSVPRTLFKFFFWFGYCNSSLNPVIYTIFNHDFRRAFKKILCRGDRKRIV
assayOverview: 3H‐rauwolscine whole cell binding in CHO‐α2A cells
Parameters: expressed in transfected cells; host or cells: CHO-K1 with CRE-SPAP reporter
statedConditions: fold, from KD values; 1 = no selectivity
metricName: Selectivity ratio α2A vs α2B (higher affinity for α2A)
Lab note: jot down the number only; don't add units.

Request: Tell me the measured Selectivity ratio α2A vs α2B (higher affinity for α2A) of C[C@H](N)[C@H](O)c1cccc(O)c1 [Metaraminol] , please.
Result: 1.5

Request: Give the measured Selectivity ratio α2A vs α2B (higher affinity for α2A) of CCNCC(O)c1cccc(O)c1 (stereo not shown) [Etilefrine] .
Result: 2.1

Request: Selectivity ratio α2A vs α2B (higher affinity for α2A) lookup needed for c1ccc2c(c1)CCCC2C1=NCCN1 (stereo not shown) [Tetrahydrozoline] , thanks.
Result: 17.4

Request: Quick one: Selectivity ratio α2A vs α2B (higher affinity for α2A) of C1COC(NC(C2CC2)C2CC2)=N1 [Rilmenidine] ?
Result: 2.6

Request: Fill blank: measured Selectivity ratio α2A vs α2B (higher affinity for α2A) of the compound c1ccc(C2CC2)c(OCC2=NCCN2)c1 [Cirazoline] is ____.
Result: 16.2

Request: Look up Selectivity ratio α2A vs α2B (higher affinity for α2A) for this compound: COc1ccc(OC)c(C(O)C(C)N)c1 (stereo not shown) [Methoxamine]
Result: 2.5

Request: I am curious: what Selectivity ratio α2A vs α2B (higher affinity for α2A) value has been reported for c1ccc2c(CC3=NCCN3)cccc2c1 [Naphazoline] ?
Result: 16.2
